I'd be grateful if you could share measured Activity for these entries.
Tested on: Plutella xylostella
Assay: Induction of response in mated male Plutella xylostella (diamondback moth) assessed as flying moth level at 10 uL in presence of synthetic pheromone measured after 10 min by wind tunnel bioassays (Rvb hexane = 0%)
Format: functional
Returns: string containing the number followed by the unit.

// solved cases for Activity follow
C=CC(O)CCC (configuration not stated): 5%
CC/C=C\CCOC(C)=O [(Z)-hex-3-en-1-yl acetate]: 35%
CCCCCCOC(C)=O [HEXYL ACETATE]: 0%
CCC/C=C/C=O: 25%
CCCCCCO: 5%

For each of the items listed, what is its Activity?
1. CC/C=C\CCO [CIS-3-HEXENOL]
2. CCCCCC=O

1: 15%; 2: 5%

* * *

Test system: Plutella xylostella
Assay: Induction of response in mated male Plutella xylostella (diamondback moth) assessed as flying moth level at 10 uL measured after 10 min by wind tunnel bioassays (Rvb hexane = 0%)
Assay type: functional
Would you mind telling me the reported Activity of each entry?
Give bare numbers, in %.

Answered examples (5):
C=CC(O)CCC (configuration not stated): 0
CC/C=C\CCOC(C)=O [(Z)-hex-3-en-1-yl acetate]: 30
CCCCCCOC(C)=O [HEXYL ACETATE]: 0
CCCCCC=O [HEXANAL]: 5
CCCCCCO [1-HEXANOL]: 0

Provide Activity values for the following items, in order.
1. CCC/C=C/C=O
2. CC/C=C\CCO [CIS-3-HEXENOL]

[20, 0]

* * *

Test system: Plutella xylostella
Test: Induction of response in mated male Plutella xylostella (diamondback moth) assessed as landing moth level at 10 uL measured after 10 min by wind tunnel bioassays (Rvb hexane = 0%)
Assay type: functional
REPORTED_PROPERTY: Activity (%)
Give bare numbers, in %.

C=CC(O)CCC (configuration not stated): 5
CC/C=C\CCOC(C)=O [(Z)-hex-3-en-1-yl acetate]: 20
CCCCCCO: 5
CCC/C=C/C=O: 15
CCCCCCOC(C)=O [HEXYL ACETATE]: 5
CC/C=C\CCO [CIS-3-HEXENOL]: 10

Note: attention shifts to another entry.
Name the recorded Activity of CCCCCC=O , assay system Plutella xylostella.
10

* * *

Give measured Activity for each item. Keep answers brief.
System: Plutella xylostella
Assay: Induction of response in unmated male Plutella xylostella (diamondback moth) assessed as landing moth level at 10 uL measured after 10 min by wind tunnel bioassays (Rvb hexane = 0%)
Format: functional
Give bare numbers, in %.

Illustrative cases are given below, each with its answer.
CCCCCCOC(C)=O [HEXYL ACETATE]: 5
CC/C=C\CCO [CIS-3-HEXENOL]: 15
CCCCCCO: 5
CC/C=C\CCOC(C)=O [(Z)-hex-3-en-1-yl acetate]: 25
CCCCCC=O: 10
CCC/C=C/C=O: 20

Consider now this further compound.
Please report the measured Activity for C=CC(O)CCC (configuration not stated)
10

* * *

Test system: Plutella xylostella
Assay: Induction of response in unmated male Plutella xylostella (diamondback moth) assessed as flying moth level at 10 uL in presence of synthetic pheromone measured after 10 min by wind tunnel bioassays (Rvb hexane = 5%)
Format: functional
REPORTED_PROPERTY: Activity (%)
Numbers only, in %.

Examples with their reported Activity follow.
CC/C=C\CCOC(C)=O [(Z)-hex-3-en-1-yl acetate]: 100
CCCCCC=O: 80
C=CC(O)CCC (configuration not stated): 65
CCC/C=C/C=O: 90

Each compound below has a recorded value; state its Activity.
1. CCCCCCOC(C)=O [HEXYL ACETATE]
2. CC/C=C\CCO [CIS-3-HEXENOL]

1. 60
2. 85

Provide the reported Activity (system: Plutella xylostella) for CCCCCCO
75
